SYSTEM: human mGluR2 receptor (Homo sapiens, UniProt Q14416)
Construct: membranes
Sequence (Q14416 19-872): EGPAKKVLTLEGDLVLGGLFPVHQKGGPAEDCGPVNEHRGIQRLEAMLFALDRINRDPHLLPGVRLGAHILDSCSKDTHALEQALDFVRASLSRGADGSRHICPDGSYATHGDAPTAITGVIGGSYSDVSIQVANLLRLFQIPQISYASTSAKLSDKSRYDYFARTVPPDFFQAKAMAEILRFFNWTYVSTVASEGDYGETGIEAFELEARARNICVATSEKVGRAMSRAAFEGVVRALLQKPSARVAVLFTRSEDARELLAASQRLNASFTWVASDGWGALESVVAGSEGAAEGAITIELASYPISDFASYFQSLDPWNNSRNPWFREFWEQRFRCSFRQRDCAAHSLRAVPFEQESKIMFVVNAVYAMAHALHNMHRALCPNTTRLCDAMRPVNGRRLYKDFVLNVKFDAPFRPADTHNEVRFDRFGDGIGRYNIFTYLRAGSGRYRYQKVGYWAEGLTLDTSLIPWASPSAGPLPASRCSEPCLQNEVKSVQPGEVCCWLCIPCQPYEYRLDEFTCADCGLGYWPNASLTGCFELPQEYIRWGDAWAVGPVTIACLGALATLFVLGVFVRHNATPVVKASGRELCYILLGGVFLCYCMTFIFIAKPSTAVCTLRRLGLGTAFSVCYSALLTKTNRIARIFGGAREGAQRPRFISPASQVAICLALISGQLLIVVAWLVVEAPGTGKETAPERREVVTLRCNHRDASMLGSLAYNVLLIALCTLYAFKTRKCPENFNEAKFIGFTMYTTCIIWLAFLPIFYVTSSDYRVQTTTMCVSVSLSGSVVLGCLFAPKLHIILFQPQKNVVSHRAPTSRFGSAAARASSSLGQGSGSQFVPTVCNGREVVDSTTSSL
EXPERIMENT_DESCRIPTION: [35S]-GTPγS binding assay of mGluR2 receptor activation (allosteric activator activity)
SETUP_CONDITIONS: membranes from CHO cells stably expressing human mGluR2; 1 μM glutamate; read-out: GTPgS EC50
PROPERTY_NAME: EC50 (nM)

- Cc1cc(-c2noc(C(C)N3CCNCC3)n2)cc2c1C(=O)N([C@@H](C)c1ccc(Cl)cc1)C2 (stereo partly shown): 210
- Cc1cc(-c2noc(CN3C[C@@H]4C[C@H]3CN4)n2)cc2c1C(=O)N([C@@H](C)c1ccc(Cl)cc1)C2: 352
- O=C1c2c(Cl)cc(-c3noc(CN4CCNCC4)n3)cc2CN1Cc1ccc(OC(F)(F)F)cc1: 226
- Cc1cc(-c2noc(CN3CCNC[C@H]3C)n2)cc2c1C(=O)N(Cc1ccc(Cl)cc1)C2: 202
